# log10(TGI) per entry
tested on: A498 renal; assay: NCI tumour cell line growth inhibition, 48 h
Scale type: logarithmic (base 10). Underlying TGI unit: µM.

Provide A498 renal log10(TGI) reading for Nc1ccc(/C=N/Nc2ccnc3c(N)cccc23)c2cccnc12 .
0.52

Would you please give the reported log10(TGI) of CCCCCCCC[N+](C)(CCCCCCCC)CCCCCCCC with A498 renal?
0.19

Please report the measured log10(TGI) for CCCN(CCC)c1ccc(/C=N/NC(=O)c2cccnc2)c(Cl)c1 tested on A498 renal.
-0.50

Provide measured log10(TGI) on A498 renal for CCOC(=O)c1sc(=S)c2c(C(=O)OCC)c(C(=O)OCC)sc2c1C(=O)OCC please.
1.53

# return log10(TGI) for Cc1ccc(S(=O)(=O)N2CCc3ccc(O)c4c3C2Cc2cc(Cl)ccc2-4)cc1 (stereo unspecified) , test system: A498 renal
0.33

Give log10(TGI); test system A498 renal; compound C=C1C(=O)O[C@H]2[C@H]1CC/C(COC(=O)NCc1c[nH]c3ccc(Cl)cc13)=C\CC[C@@]1(C)O[C@@H]21
0.67

Under A498 renal, report log10(TGI) for NS(=O)(=O)c1ccc(N2N=C3c4ccccc4CC3C2c2ccc(Cl)cc2)cc1 (stereo unspecified)
0.82

Return reported log10(TGI) for target or system A498 renal, item COC(=O)CCC/C=C\C[C@H]1C=CC(=O)/C1=C/C[C@@H](O)C/C=C\CC(F)(F)F .
0.66

Would you please give the reported log10(TGI) of COc1ccccc1CNCCCN1C(=O)c2ccc3c4c(ccc(c24)C1=O)C(=O)N(CCCNCCCN)C3=O with A498 renal?
0.33

====

Let's look at some molecules and their measured GI50.
test system: OVCAR-8 ovarian; experiment: NCI tumour cell line growth inhibition, 48 h

The cases that follow already have their GI50 on record.
CCC(C)C(NC(=O)C1CCCN1C(=O)C(NC(=O)C(C)N)C(C)C)C(N)=O (centres undefined); > 100 µM
C[C@H]1[C@H](C)CC[C@]2(C(=O)O)CC[C@]3(C)C(=CC[C@@H]4[C@@]5(C)C/C(=C/c6ccco6)C(=O)C(C)(C)[C@@H]5CC[C@]43C)[C@H]12; 4.63 µM
Cc1ccc(S(=O)(=O)N2CCc3ccc(O)c4c3C2Cc2cc(Cl)ccc2-4)cc1 (centres undefined); 1.21 µM

Next molecule, please.
Let me know recorded GI50 for COc1ccc(-c2ccc(C3CC(c4ccc(Cl)cc4)=NN3)o2)c([N+](=O)[O-])c1 (centres undefined) , thanks.
> 100 µM

====

test system: SK-MEL-5 melanoma; assay: NCI tumour cell line growth inhibition, 48 h
Metric: GI50

Take a look at these entries with their results.
COc1ccc(-c2nc(-c3nc4ccc(OC)cc4[nH]3)cc3c2[nH]c2ccccc23)cc1; 2180 nM
NCCC(O)(P(=O)(O)O)P(=O)(O)O; > 100000 nM
CCCN(CCC)c1ccc(/C=N/NC(=O)c2cccnc2)c(Cl)c1; 6090 nM
COc1cc(C(=O)c2cc3c(cc2C)OCO3)cc(OC)c1OC; 45.4 nM
CCC(C)C(NC(=O)C1CCCN1C(=O)C(NC(=O)C(C)N)C(C)C)C(N)=O (configuration not stated); > 100000 nM

Moving on to another compound below.
Let me know recorded GI50 for COC1=CC(c2ccc[nH]2)=N/C1=C\c1[nH]c(C)c(C(=O)CCCCC(=O)Nc2ccccc2)c1C , thanks.
4220 nM

====

test system: MDA-MB-231 breast; test: NCI tumour cell line growth inhibition, 48 h; in the data active = GI50 below about 0.43 µM; inactive = the rest
Returns: one label drawn from active, inactive

Reference set (3 entries):
COc1ccc(C2=NN(C(C)=O)C(c3cn(-c4ccccc4)nc3-c3ccc(Cl)cc3)C2)cc1 (stereo unspecified); inactive
COc1cc(C(=O)c2cc3c(cc2C)OCO3)cc(OC)c1OC; active
C[C@H]1[C@H](C)CC[C@]2(C(=O)O)CC[C@]3(C)C(=CC[C@@H]4[C@@]5(C)C/C(=C/c6ccco6)C(=O)C(C)(C)[C@@H]5CC[C@]43C)[C@H]12; inactive

Please state the recorded outcome for this compound: Cc1nc(NC(=O)CCCN2C(=O)c3cccc4cccc(c34)C2=O)sc1C(=O)Nc1cc(C(=O)NCCCN(C)C)n(C)c1
inactive

What outcome does the record of this test show for COc1ccc2c(c1)CC[C@@H]1[C@@H]2CC[C@]2(C)C(c3ccco3)=C(C=O)C[C@@H]12 ?
inactive

What call does the record list for COC(=O)C1=C(C(=O)OC)C23C=C(C)C1C2=C(C)C1(CC1)[C@@](C)(O)C3=O (stereo partly specified) ?
active

Can you look up the reported call for COc1ccccc1CNCCCN1C(=O)c2ccc3c4c(ccc(c24)C1=O)C(=O)N(CCCNCCCN)C3=O for me?
inactive

====

Catalogue of compounds with associated TGI
test system: OVCAR-8 ovarian; experiment: NCI tumour cell line growth inhibition, 48 h

Reference set, count: 3
Cc1cc(Cl)cc2c1NC(=O)C2(O)C(C)C(=O)c1ccc(Cl)cc1 (stereo not given); > 100 µM
NC1=N/C(=C2/CCNC(=O)c3[nH]c(Br)cc32)C(=O)N1; > 100 µM
NC(=S)N/N=C1/C(=O)N(c2ccc(Cl)cc2Cl)C(=O)C(=O)C1c1nc2ccccc2s1 (stereo not given); > 100 µM

Fill in reported TGI for this entry: COC(=O)C1=C(C(=O)OC)C23C=C(C)C1C2=C(C)C1(CC1)[C@@](C)(O)C3=O (stereo not given in full)
> 24.6 µM

Return TGI for the following compound: Cc1n[nH]c(=O)n1/N=C/c1c[nH]c2ccccc12
> 100 µM

Look up TGI of OC1CN2CCS[C@H]2C(O)C1O (stereo not given in full) and report it.
> 100 µM

For CO[C@@H]1[C@H](OC(=O)NC(=O)CCl)CC[C@]2(CO2)[C@H]1[C@@]1(C)O[C@@H]1CC=C(C)C , write its TGI.
79.9 µM

State, in one line, measured TGI of O=[N+]([O-])c1cc(-[n+]2cc([O-])on2)ccc1F
30.9 µM

====

system: NCI/ADR-RES ovarian; assay: NCI tumour cell line growth inhibition, 48 h
Metric: TGI

COc1cc2nc(Nc3cccc(F)c3)nc(Nc3cc(C)[nH]n3)c2cc1OC; 3.64 µM
Cc1c2c(n(Cc3ccccn3)c1C)NN=C(C#N)S2(=O)=O; > 100 µM
NS(=O)(=O)c1ccc(N2N=C3c4ccccc4CC3C2c2ccc(Cl)cc2)cc1 (stereo unspecified); 38.5 µM

Give reported TGI value for COc1cc(C(=O)c2cc3c(cc2C)OCO3)cc(OC)c1OC
> 100 µM

Tell us which TGI value is on record for O=C(c1cccnc1)N1N=C(c2ccc(Cl)cc2)CC1(O)c1cc(F)c(Cl)cc1Cl (stereo unspecified)
> 100 µM

Provide one value: measured TGI of COC(=O)CCC/C=C\C[C@H]1C=CC(=O)/C1=C/C[C@@H](O)C/C=C\CC(F)(F)F
8.33 µM

Supply recorded TGI for NCCNC(=S)S here.
> 100 µM

Check the records and state TGI for CCOC(=O)c1sc(=S)c2c(C(=O)OCC)c(C(=O)OCC)sc2c1C(=O)OCC
35.9 µM

====

tested on: SK-MEL-28 melanoma; test: NCI tumour cell line growth inhibition, 48 h; in the data active means GI50 below about 0.43 µM; inactive means the rest
Bench note: report the call from true for active, false for inactive

COc1ccc(NC(=O)c2sc3nc(C)c(C(O)c4ccccc4)cc3c2N)cc1 (configuration not stated); false
COc1ccc(/C=C/c2n[nH]c3ccc(N4CCOC4=O)cc23)cc1; false

Could you now look at the following compound, please?
Kindly provide the recorded test outcome for the following compound: COc1ccc(C2=NN(C(C)=O)C(c3cn(-c4ccccc4)nc3-c3ccc(Cl)cc3)C2)cc1 (configuration not stated)
false

====

test system: SK-MEL-2 melanoma; assay: NCI tumour cell line growth inhibition, 48 h
# Lookup of reported TGI keyed by entry

COc1ccc(-c2ccc(C3CC(c4ccc(Cl)cc4)=NN3)o2)c([N+](=O)[O-])c1 (stereo unspecified); > 100 µM
COc1ccc([N+](=O)[O-])c(S(=O)(=O)c2ccc(Cl)cc2)n1; 24.3 µM
COC1=CC(c2ccc[nH]2)=N/C1=C\c1[nH]c(C)c(C(=O)CCCCC(=O)Nc2ccccc2)c1C; 26.7 µM
O=C1OC(O)C(Oc2ccc(Cl)cc2)=C1Cl (stereo unspecified); > 100 µM
N/N=C1/CCCc2nonc21; > 100 µM

From here, focus on the item given below.
Provide TGI value for the following compound: O=c1c2ccccc2c2nc3ccccc3nc2n1C1CCCCC1
> 100 µM

====

tested on: NCI/ADR-RES ovarian; assay: NCI tumour cell line growth inhibition, 48 h; in the data active means GI50 below about 0.43 µM; inactive means the rest
I would appreciate it if you answered using one of these outcomes: label 1 (active), label 0 (inactive)

Here are 5 compounds together with their reported answers.
CCn1cnc2c(Nc3cccc(Cl)c3)nc(N[C@@H]3CCCC[C@@H]3N)nc21; label 0
Cc1ccc(S(=O)(=O)N2CCc3ccc(O)c4c3C2Cc2cc(Cl)ccc2-4)cc1 (configuration not stated); label 0
COC(=O)C1=C(C(=O)OC)C23C=C(C)C1C2=C(C)C1(CC1)[C@@](C)(O)C3=O (some centres not stated); label 1
COC1=CC(c2ccc[nH]2)=N/C1=C\c1[nH]c(C)c(C(=O)CCCCC(=O)Nc2ccccc2)c1C; label 0
Cn1cc(C2=C(c3cn(CCN)c4ccccc34)C(=O)NC2=O)c2ccccc21; label 0

Hi, do you know how NS(=O)(=O)c1ccc(CCN=C=S)cc1 came out in this test?
label 0

Assay outcome for COc1ccccc1CNCCCN1C(=O)c2ccc3c4c(ccc(c24)C1=O)C(=O)N(CCCNCCCN)C3=O : what was it?
label 0
